# Tested on: MUC5AC production by H292 clone 15 cells overexpressing hCLCA1
# test-protocol: ELLA of MUC5AC in conditioned media of H292 clone 15 cells
# Format: cell-based, human
# condition-set: 48 hours, Average of 3 experiments
test-readout: IC50

Quickly give me recorded IC50 for O=C1OC(CC(=O)c2cccnc2Nc2cccc(C(F)(F)F)c2)c2ccccc21 (stereo not shown)
3 µM

* * *

Each entry below carries its reported Est. LD50 (μM)(alamar Blue)*.
# Tested on: H292 clone 15 cells
# condition-set: 48 hours compound, Alamar Blue 2 hours; Average of 3 experiments
Express the result in µM but write the number alone.

> print(dat)
                                   compound      subject.of.test  recorded.result
1  O=C1OC(CC(=O)c2cccnc2Oc2cccc(Br)c2)c2ccccc21 (stereo not shown)  H292 clone 15 cells               16
2  O=C1OC(CC(=O)c2cccnc2Nc2cccc(C(F)(F)F)c2)c2ccccc21 (stereo not shown)  H292 clone 15 cells               32
3  O=C1OC(OC(=O)c2cccnc2Nc2cccc(C(F)(F)F)c2)c2ccccc21 (stereo not shown) [Talniflumate, talniflumate]  H292 clone 15 cells              108

// below: Est. LD50 (μM)(alamar Blue)* requested for another compound
Given the compound O=C1OC(CC(=O)c2cccnc2Sc2ccccc2Cl)c2ccccc21 (stereo not shown) , write its reported Est. LD50 (μM)(alamar Blue)*.
15

* * *

# Tested on: activated Caco2 cells
# condition-set: Caco-2
test-readout: Mucin production by activated Caco2 cells

> print(dat)
                                   compound  recorded.result
1  CC1=C(CC(=O)O)c2cc(F)ccc2/C1=C\c1ccc([S+](C)[O-])cc1 (centres unmarked) [Sulindac]      ineffective
2  COc1ccc2cc([C@H](C)C(=O)O)ccc2c1 [Naproxen]      ineffective
3  Cc1cccc(Nc2ccccc2C(=O)O)c1C [Mefenamate]        partially
4  Cc1ccc(Cl)c(Nc2ccccc2C(=O)O)c1Cl [Meclofenamate]        partially

* * *

# System: MUC5AC production by H292 clone 15 cells overexpressing hCLCA1
# test-protocol: ELLA of MUC5AC in conditioned media of H292 clone 15 cells
# Type: cell-based, human
# condition-set: Homo sapiens, NCI-H292, 48 hours, Average of 3 experiments
test-readout: IC50 (µM)
Express your answer in µM, writing the number without its unit.

State its IC50: O=C1OC(CC(=O)c2cccnc2Sc2ccccc2Cl)c2ccccc21 (stereo not shown)
2.5
